# Tested on: human primary T-cells, IL-2 stimulated proliferation (JAK-1 and JAK-3 dependent; reported as JAK3 activity)
# Experiment description: Human primary T-cell proliferation stimulated by IL-2 (Example 3)
# Assay type: cell-based
# Experimental parameters: Homo sapiens, T-cell, tested under conditions described in Example 3 (IL-2 stimulated human primary T-cell proliferation); read-out: ability to inhibit JAK3 activity, IC50 range (Table V)
pIC50: −log10 of the molar value.
Please respond with reported pIC50 for every item in the list.

Parameters: items (list). Returns: pIC50 for each item.
1. Cc1cnc(Nc2ccc(N(C)[C@H]3CCCNC3)nc2)nc1Nc1ccc2oc(=O)[nH]c2c1 [II-103]
2. Cc1cc(Nc2ncc(C)c(Nc3ccc4oc(=O)[nH]c4c3)n2)ccc1C(=O)O [Compound I-170]
3. COc1ccnc(Nc2ncc(C)c(Nc3ccc4oc(=O)[nH]c4c3)n2)c1 [IV-58]
4. COc1cc(CF)cc(Nc2ncc(C)c(Nc3ccc4oc(=O)[nH]c4c3)n2)c1 [Compound I-274]
5. Cc1cnc(Nc2ccc(F)c(S(C)(=O)=O)c2)nc1Nc1cc(C)c2oc(=O)[nH]c2c1 [Compound I-245]
6. Cc1cnc(Nc2cnc(C3CC4CCC(C3)N4C(=O)C(F)(F)F)c(C)c2)nc1Nc1ccc2oc(=O)[nH]c2c1 (centres unmarked) [II-69]

Ans.
1: > 6.30; 2: < 5.00; 3: < 5.00; 4: > 6.30; 5: > 6.30; 6: > 6.30

====

# Test system: human primary T-cells, IL-2 stimulated proliferation (JAK-1 and JAK-3 dependent; reported as JAK3 activity)
# Experiment description: Human primary T-cell proliferation stimulated by IL-2 (Example 3)
# Format: cell-based
# Experimental parameters: Homo sapiens, T-cell, tested under conditions described in Example 3 (IL-2 stimulated human primary T-cell proliferation); read-out: ability to inhibit JAK3 activity, IC50 range (Table V)
pIC50: −log10 of the molar value.
Please respond with reported pIC50 for every item in the list.

Reference set (8 entries):
Compound | pIC50
Cc1cnc(Nc2ccc(NS(C)(=O)=O)nc2)nc1Nc1ccc2oc(=O)[nH]c2c1 [II-78] | > 6.30
Cc1cnc(Nc2ccc3c(c2)OCC(=O)N3)nc1Nc1ccc2oc(=O)[nH]c2c1 [IV-32] | > 6.30
Cc1cnc(Nc2ccc3c(c2)CN(S(C)(=O)=O)C3)nc1Nc1ccc2oc(=O)[nH]c2c1 [III-14] | > 6.30
CCN(CC)C(C)c1cccc(Nc2ncc(C)c(Nc3ccc4oc(=O)[nH]c4c3)n2)c1 (centres unmarked) [Compound I-216] | > 6.30
COc1ccc(Nc2ncc(C)c(Nc3cc(F)c4oc(=O)[nH]c4c3)n2)cc1C [Compound I-431] | > 6.30
COc1cc(Nc2ncc(C)c(Nc3ccc4oc(=O)[nH]c4c3)n2)cc(C(C)O)c1 (centres unmarked) [Compound I-423] | > 6.30
Cc1cnc(Nc2cc(Cl)cc(C(F)(F)F)c2)nc1Nc1ccc2oc(=O)[nH]c2c1 [Compound I-497] | < 5.00
Cc1cnc(Nc2cc(O)c3ccccc3c2)nc1Nc1ccc2oc(=O)[nH]c2c1 [IV-56] | 5.00 to 5.30

Parameters: items (list). Returns: pIC50 for each item.
1. CC(=O)c1cccc(Nc2ncc(C)c(Nc3ccc4oc(=O)[nH]c4c3)n2)c1 [Compound I-130]
2. Cc1cnc(Nc2cc(F)cc(Cl)c2)nc1Nc1ccc2oc(=O)[nH]c2c1 [Compound I-186]
3. CC(=O)c1cc(Nc2ncc(C)c(Nc3ccc4oc(=O)[nH]c4c3)n2)cc(C(F)(F)F)c1 [Compound I-445]

Ans.
1: > 6.30; 2: > 6.30; 3: > 6.30
